Tested on: Brugia malayi
Procedure Details: WHO-TDR: Lymphatic Filariasis;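 note: tested at 10 µM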
Format: functional
Design: concentration or dose not given beside the values
Binary call on % Inhibition with cut-off 30%: strictly below means 1, and equality or higher means 0.

O=C(CCSc1ccccc1)N(Cc1ccccn1)c1nc2ccccc2s1: 1
Cc1ccc(-c2nnc(NC(=O)c3ccc(S(=O)(=O)N4CCc5ccccc5C4)cc3)o2)cc1C: 1
Cc1cccc(Nc2ccc(NCCNS(=O)(=O)c3ccc(F)cc3)nn2)n1: 0
COC(=O)c1ccc(CSc2ccc(NC(=O)C(C)C)nn2)o1: 0
COc1cccc(NC(=O)NCCNc2ccc(Nc3cc(C)ccn3)nn2)c1: 1
COc1ccc(OC)c(S(=O)(=O)NCCNc2ccc(Nc3cc(C)ccn3)nn2)c1: 0

Hi there! Is % Inhibition for COc1ccc(-c2cn3c(CCC(=O)Nc4ccccc4SC)csc3n2)cc1 below 30%, do you know?
1

Also O=S(=O)(CCCOc1ccc2c(c1)OCO2)NCCc1c[nH]c2ccccc12 ?
1

Also COc1cc(NCCNC(=O)C(C)C)nc(OC)n1 ?
1

Also O=S(=O)(NCC(c1cccs1)N1CCOCC1)c1ccc(Cl)s1 (configuration not stated) ?
1

Also CCCn1/c(=N/C(=O)C2=COCCO2)sc2c(C)ccc(OC)c21 ?
1

Also Cn1ccnc1N1CCN(CC(=O)Nc2ccccc2C(F)(F)F)CC1 ?
1

Also COc1ccc2nc(Nc3nc(-c4ccccn4)cs3)sc2c1 ?
0

Also Cc1cc(-c2nnc(NC(=O)C3CCCCN3S(=O)(=O)c3cccs3)o2)nn1C (configuration not stated) ?
0

Also O=C(COc1ccccc1)Oc1ccc2nc(N3CCN(c4ccccc4)CC3)sc2c1 ?
1

Also CSc1ccc2nc(N(Cc3cccnc3)C(=O)c3ccc(C(C)(C)C)cc3)sc2c1 ?
1

Also O=C(O)CCC(=O)Nc1ccc(Br)cc1 ?
0

Also CCOC(=O)c1oc2ccccc2c1NC(=O)c1cc(C)no1 ?
1

Also COc1ccc(Cl)cc1C(=O)NCCOc1ccc2nnc(-c3ccc(F)cc3)n2n1 ?
0

Also O=C(Nc1nc(-c2ccccn2)cs1)c1ccc2ncsc2c1 ?
0

Also COc1cccc(-c2cc(CC(=O)NCCC(C)C)no2)c1 ?
1

Also O=C(CSc1nnc(NC(=O)C23CC4CC(CC(C4)C2)C3)s1)Nc1nccs1 ?
0

----------
Each entry below lists one item and its recorded IC50 value.
System: Trypanosoma brucei brucei
Procedure Details: WHO-TDR: Human African Trypanosomiasis (HAT)
Type: functional, organism-based
Condition Details: Squib-427
Provide the reading as a plain figure in µg/mL.

Example results:
Cc1ccc(NC(=O)CSc2nncc(=O)[nH]2)cc1Cl: 2.91
CCOc1ccccc1C(=O)NCc1ccc2c(c1)cc(C)n2C: 0.163
CCOc1ccc(C(=O)Nc2ccc(Nc3nc(C)cc(N(CC)CC)n3)cc2)cc1OCC: 4.4
O=S(=O)(NCC(c1cccnc1)N1CCN(c2ccccc2F)CC1)c1cc(F)ccc1F (configuration not stated): 4.74

Provide the documented IC50 with Trypanosoma brucei brucei as the system for CN1CCN(C(CNC(=O)COc2ccccc2F)c2ccc3c(c2)CCN3C)CC1 (configuration not stated)
4.14

Also CN(C)CCCN(C(=O)c1nc2ccccc2s1)c1nc2c(Cl)cccc2s1 ?
0.352

Also CCSc1ccccc1C(=O)Nc1nnc(-c2cccs2)o1 ?
0.656

Also COc1nn(C)cc1-c1nnc(SCC(=O)N2CCC(Cc3ccccc3)CC2)n1C ?
0.428

Also CS(=O)(=O)N1CCCCC1C(=O)Nc1nc(-c2ccc(F)cc2)cs1 (configuration not stated) ?
5.4

Also O=C(CSc1nnc(NC(=O)COc2ccc(Cl)cc2)s1)NCc1ccc2c(c1)OCO2 ?
4.51

Also O=C(Nc1nc(-c2ccccn2)cs1)c1cc(Cl)sc1Cl ?
0.182

Also COc1ccc(-c2cn3c(CCC(=O)NCCc4c[nH]c5ccccc45)csc3n2)cc1 ?
0.382

Also Cc1ccc(S(=O)(=O)NCCNc2ccc(Nc3cccc(C)n3)nn2)c(C)c1 ?
4.01

Also C=CCN1C(=O)C(C)(C)COc2cc(NS(=O)(=O)c3ccccc3Cl)ccc21 ?
4.04

Also COc1ccccc1CC(=O)c1ccc(O)c(CN2CCCC(C)C2)c1O (configuration not stated) ?
3.63

Also CN(Cc1ccco1)S(=O)(=O)c1ccc(C(=O)Nc2nnc(-c3cccs3)o2)cc1 ?
4.22

----------
Test system: Leishmania infantum
Procedure Details: WHO-TDR: Leishmaniasis
Assay type: functional, organism-based, Mus musculus
Condition Details: Macrophage
Each entry below lists one item and its recorded IC50 value.

Example results:
CCOC(=O)c1c(NC(=O)C(C)n2c(-n3nc(C)cc3C)nc(CC)cc2=O)sc2c1CCC2 (stereo unspecified): 4.7 µg/mL
CCOc1ccc(-c2ccc(OCCNS(=O)(=O)c3cc(C)c(C)cc3C)nn2)cc1: > 13.2 µg/mL
COc1ccc(C)cc1S(=O)(=O)N1CCN(c2ccc(-c3cccs3)nn2)CC1: 0.418 µg/mL
CN(C)CCCN(C(=O)c1cc(-c2cccs2)nc2ccccc12)c1nc2c(F)cccc2s1: 5.12 µg/mL
O=C(CSc1nnc(NC(=O)c2ccccc2C(F)(F)F)s1)Nc1ccc2c(c1)OCO2: 4.55 µg/mL

Can you look up the measured IC50 of O=C(CSc1ccc(NC(=O)c2ccco2)nn1)Nc1ccccc1C(F)(F)F for me?
> 12.7 µg/mL

----------
System: Onchocerca lienalis
Procedure Details: WHO-TDR: Onchocerciasis;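 note: at 12.5 µM on microfilariae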
Assay type: functional
Parameters: concentration or dose not given beside the values
Assay Readout: % Inhibition

Example results:
Cc1cccc(-c2nc(CCNC(=O)c3ccco3)cs2)c1: 0%
CCSc1nnc(NC(=O)CSc2nncc(=O)[nH]2)s1: 0%
CC(Sc1ccc2nnc(CCNC(=O)c3ccccc3)n2n1)c1ccccc1 (stereo not given): 0%
CCOC(=O)Cn1/c(=N/C(=O)c2ccc(N3C(=O)CCC3=O)cc2)sc2c(C)cc(C)cc21: 13.3%
CCn1nnc2c(N3CCN(C(c4ccccc4)c4ccccc4)CC3)ncnc21: 100%

# next compound below
Provide the documented % Inhibition with Onchocerca lienalis as the system for Cc1ccc(NC(=O)CSc2nncc(=O)[nH]2)cc1Cl
0%

----------
System: Plasmodium falciparum K1
Procedure Details: WHO-TDR: Malaria
Format: functional, organism-based, Homo sapiens
Condition Details: Erythrocyte
Each entry below lists one item and its recorded IC50 value.
Provide the reading as a plain figure in µg/mL.

Example results:
CN(C)CCCN(C(=O)c1ccc(Br)s1)c1nc2ccccc2s1: 5.41
Cc1nc(-c2ccccc2)sc1C(=O)Nc1cccc(-c2cn3c(n2)SCC3)c1: 10.4

Can you look up the measured IC50 of CN(C)CCCN(C(=O)c1ccccc1F)c1nc2c(Cl)cccc2s1 for me?
0.848

----------
Tested on: Plasmodium falciparum K1
Procedure Details: WHO-TDR: Malaria
Format: functional, organism-based, Homo sapiens
Condition Details: Erythrocyte
Each entry below lists one item and its recorded IC50 value.

Can you look up the measured IC50 of C/C=C/Cn1c(=O)c2c(nc3n(C(C)c4ccccc4)c(C)cn23)n(C)c1=O (configuration not stated) for me?
6.29 µg/mL

----------
Each entry below lists one item and its recorded IC50 value.
Procedure Details: WHO-TDR: Cytotoxicity
Format: toxicity, cell-based
Condition Details: human, MRC5 cells

O=C(CCn1cnc2c(cnn2-c2ccccc2)c1=O)Nc1nccs1: > 11 µg/mL
O=C(Cn1c(=O)n(Cc2cccnc2)c(=O)c2ncccc21)c1ccc2c(c1)CCCC2: > 12.8 µg/mL
COc1ccc(C)c2sc(N(CCCn3ccnc3)C(=O)Cc3ccccc3)nc12: 4.07 µg/mL
COc1ccc(-c2cn3c(CCC(=O)Nc4ccccc4SC)csc3n2)cc1: > 12.7 µg/mL
Cc1cccc(NC(=O)Cn2cc(S(=O)(=O)c3ccc(F)cc3)c3ccccc32)n1: > 12.7 µg/mL
CCOC(=O)c1c(NC(=O)CSc2nc3c([nH]c4ccccc43)c(=O)n2-c2ccccc2)sc2c1CCC2: > 16.3 µg/mL
COc1ccc(Cl)c2sc(NC(=O)c3ccc4c(c3)OCCO4)nc12: 3.43 µg/mL
Cc1nc2scc(-c3cccc(NS(C)(=O)=O)c3)n2c(=O)c1C: > 10.5 µg/mL

Can you look up the measured IC50 of CCN(C1CCCCC1)S(=O)(=O)c1ccc(C(=O)Nc2nnc(-c3ccco3)o2)cc1 for me?
6.19 µg/mL

Also CCn1ccnc1N1CCN(C(=O)c2cccc(OC)c2OC)CC1 ?
> 11.4 µg/mL

----------
Procedure Details: WHO-TDR: Cytotoxicity
Assay type: toxicity, cell-based
Condition Details: human, MRC5 cells
Assay Readout: IC50

Can you look up the measured IC50 of O=S(=O)(NCC(c1cccnc1)N1CCN(c2ccccc2F)CC1)c1cc(F)ccc1F (stereo not drawn) for me?
> 14.3 µg/mL

Also CN(C)CCCN(C(=O)c1ccc(Br)s1)c1nc2ccccc2s1 ?
> 13.8 µg/mL

Also O=S(=O)(NCCNc1ccc(Nc2ccncc2)nn1)c1cc(Cl)ccc1Cl ?
> 13.2 µg/mL

Also CC(=O)N1CCc2ccc(NC(=O)c3ccc(F)c(F)c3)cc21 ?
> 9.49 µg/mL

Also Cc1cc(NS(=O)(=O)c2c(C)noc2C)n(C2CCS(=O)(=O)C2)n1 (stereo not drawn) ?
> 11.2 µg/mL

Also O=C(CC1CCCC1)N1CCN(c2ccc(-c3ccccn3)nn2)CC1 ?
5.57 µg/mL

Also O=C(COc1ccc(F)cc1)NCC(c1ccsc1)N1CCc2ccccc2C1 (stereo not drawn) ?
> 12.3 µg/mL

Also COc1ccccc1C(=O)NCCSc1c(-c2ccccc2)[nH]c2ccccc12 ?
> 12.1 µg/mL
